Subject of test: Pyruvate dehydrogenase kinase (Homo sapiens, UniProt Q15119+Q15120+Q16654+Q15118)
Method notes: Binding affinity to pyruvate dehydrogenase kinase (unknown origin) by VER-00160364 probe based fluorescence polarization assay
Consider the following compounds and their measured IC50 readings.
Endpoint label: IC50 (nM)

> print(dat)
                                smiles.text  observed.result
1  CCOC(=O)c1nc(-c2ccc3c(c2)CC[C@H](C)N3C(=O)c2ccc(O)cc2O)c2ccccc2n1              100
2  C[C@H]1CCc2cc(-c3ccncc3C(F)(F)F)ccc2N1C(=O)c1ccc(O)cc1O              100
3  CN(Cc1nc2ccccc2[nH]1)C(=O)c1ccc2c(c1)CCCN2C(=O)c1ccc(O)cc1O              100

* * *

Consider the following compounds and their measured IC50 readings.
Subject of test: Pyruvate dehydrogenase kinase (Homo sapiens, UniProt Q15119+Q15120+Q16654+Q15118)
Method notes: Binding affinity to pyruvate dehydrogenase kinase (unknown origin) by VER-00160364 probe based fluorescence polarization assay
Endpoint label: IC50

> print(dat)
                                smiles.text  observed.result
1  C[C@H]1CCc2cc(-c3ccc(Cl)cc3Cl)ccc2N1C(=O)c1ccc(O)cc1O          1000 nM
2  C[C@H]1CCc2cc(-c3nc(Cl)nc4ccsc34)ccc2N1C(=O)c1ccc(O)cc1O          1000 nM
3  Cc1cnc(NC2CCCC2)nc1-c1ccc2c(c1)CC[C@H](C)N2C(=O)c1ccc(O)cc1O          1000 nM
